Target: T1, EsCas13d, nuclease-dead (Eubacterium siraeum, UniProt B0MS50, R295A;H300A;R849A;H854A)
T1 sequence: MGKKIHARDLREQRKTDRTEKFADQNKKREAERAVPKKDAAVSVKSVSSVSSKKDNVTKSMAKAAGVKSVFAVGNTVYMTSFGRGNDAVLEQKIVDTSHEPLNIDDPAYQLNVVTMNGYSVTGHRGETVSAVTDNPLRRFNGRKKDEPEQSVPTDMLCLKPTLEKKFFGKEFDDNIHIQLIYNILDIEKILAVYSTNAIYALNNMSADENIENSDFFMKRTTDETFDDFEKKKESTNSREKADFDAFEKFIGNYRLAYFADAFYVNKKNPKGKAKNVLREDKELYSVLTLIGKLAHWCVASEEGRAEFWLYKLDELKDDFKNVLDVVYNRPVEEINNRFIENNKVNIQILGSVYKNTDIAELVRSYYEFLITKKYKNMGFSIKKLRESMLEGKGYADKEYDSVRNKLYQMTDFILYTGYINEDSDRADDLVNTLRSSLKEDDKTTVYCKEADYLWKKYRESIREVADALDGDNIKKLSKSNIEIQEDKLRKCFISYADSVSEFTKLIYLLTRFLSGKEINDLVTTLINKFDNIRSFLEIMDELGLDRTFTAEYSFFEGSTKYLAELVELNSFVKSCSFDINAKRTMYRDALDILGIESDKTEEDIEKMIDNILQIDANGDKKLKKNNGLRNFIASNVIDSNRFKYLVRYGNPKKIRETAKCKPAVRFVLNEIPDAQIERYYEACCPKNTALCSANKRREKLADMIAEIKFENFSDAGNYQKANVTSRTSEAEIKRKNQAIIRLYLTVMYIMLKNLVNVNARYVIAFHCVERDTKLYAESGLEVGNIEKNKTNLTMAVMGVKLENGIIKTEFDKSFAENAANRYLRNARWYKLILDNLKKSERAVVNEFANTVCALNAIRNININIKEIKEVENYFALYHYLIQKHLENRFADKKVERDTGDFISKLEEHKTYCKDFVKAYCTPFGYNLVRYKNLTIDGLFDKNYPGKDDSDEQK
Test: crRNA (strand 1, pre-loaded); Mg2+; 40 mM Tris-HCl pH 7.5, 150 mM NaCl, 6 mM MgCl2, 1 mM DTT, 0.1% Tween-20, 0.2 mg/ml BSA; 25 C; 10 min per concentration, then washed
Conditions: tags: His6-TwinStrep-SUMO cleaved; N-terminal SNAP kept (SNAP-Surface 488); label: 3' end held by stalled T7 RNA polymerase
Property measured: pKd
Give bare numbers, as −log10 of the molar value.

target 1 C6A,A9U (mixed) RNA 1: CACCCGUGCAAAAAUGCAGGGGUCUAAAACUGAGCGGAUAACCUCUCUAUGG RNA 2: GGGAAUGGAUCCACAUCUACGAAUUCGUACCAUAGAGAGGUUUUCAGCUCACCGAGAUCGGAAGAGCACACGU; 8.13
target 1 insC 3' of 11,insU 3' of 2 (mixed) RNA 1: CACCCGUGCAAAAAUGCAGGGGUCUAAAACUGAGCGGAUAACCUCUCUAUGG RNA 2: GGGAAUGGAUCCACAUCUACGAAUUCGUACCAUAGAGAGGUCUAUCCGCUCUACCGAGAUCGGAAGAGCACACGU; 7.14
target 1 MT 5'PFS UGC 3'PFS ACA (mixed) RNA 1: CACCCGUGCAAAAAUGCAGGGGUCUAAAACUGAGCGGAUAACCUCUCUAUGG RNA 2: GGGAAUGGAUCCACAUCUACGAAUUCUGCCCAUAGAGAGGUUAUCCGCUCAACAAGAUCGGAAGAGCACACGU; 7.63
target 3 U7A,A13G (mixed) RNA 1: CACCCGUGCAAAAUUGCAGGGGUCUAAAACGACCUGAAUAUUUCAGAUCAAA RNA 2: GGGAAUGGAUCCACAUCUACGAAUUCGUUUUUGAUCUGGAAUAUACAGGUCUGCAGAUCGGAAGAGCACACGU; 7.00

Could you report pKd for every entry in the following list?
1. target 1 MT 5'PFS UAU 3'PFS ACC (mixed) RNA 1: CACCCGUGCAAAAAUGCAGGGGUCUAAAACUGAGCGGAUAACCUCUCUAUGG RNA 2: GGGAAUGGAUCCACAUCUACGAAUUCUAUCCAUAGAGAGGUUAUCCGCUCAACCAGAUCGGAAGAGCACACGU
2. target 1 A1U,C4A (mixed) RNA 1: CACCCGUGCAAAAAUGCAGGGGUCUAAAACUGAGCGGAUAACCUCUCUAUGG RNA 2: GGGAAUGGAUCCACAUCUACGAAUUCGUACCAUAGAGAGGUUAUCCGAUCUCCGAGAUCGGAAGAGCACACGU

Result string:
7.44
8.23

Could you report pKd for every entry in the following list?
1. target 1 G5C,G17U (mixed) RNA 1: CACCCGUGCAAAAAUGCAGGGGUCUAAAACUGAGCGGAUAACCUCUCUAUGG RNA 2: GGGAAUGGAUCCACAUCUACGAAUUCGUACCAUAUAGAGGUUAUCCCCUCACCGAGAUCGGAAGAGCACACGU
2. target 1 insU 3' of 14,insU 3' of 2 (mixed) RNA 1: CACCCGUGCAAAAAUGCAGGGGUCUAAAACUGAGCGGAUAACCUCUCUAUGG RNA 2: GGGAAUGGAUCCACAUCUACGAAUUCGUACCAUAGAGAUGGUUAUCCGCUCUACCGAGAUCGGAAGAGCACACGU

Result string:
[7.55, 7.24]
